system: Phospholipid hydroperoxide glutathione peroxidase GPX4 (Homo sapiens)
assay_overview: Primary qHTS Assay for Inhibitors of Recombinant Selenoprotein Glutathione Peroxidase 4 (GPX4) (AID 1845192); further: nearly all actives have a fitted effect of over 65% in size; on activity change, negative = inhibition: on the % scale 0 is the no-effect control and ±100 the full control effect
assay_conditions: recombinant GPX4, GR-coupled NADPH fluorescence, 15 min; series mostly up to 50 µM
Inconclusive results are not listed. The source made the active and inactive calls. The call rests on the fitted dose curve; in most records, active means well fitted inhibition curve with a large enough effect; inconclusive means small, poorly fitted or top-dose-only effect; inactive means flat fitted curve, though single readings scatter.
property_name: activity change, negative = inhibition

1) CCn1cnc2c(Nc3cccc(Cl)c3)nc(N[C@@H]3CCCC[C@@H]3N)nc21	inactive
2) CC(C)[C@@H](CN1CC[C@@](C)(c2cccc(O)c2)[C@@H](C)C1)NC(=O)[C@H]1Cc2ccc(O)cc2CN1	inactive
3) CCCCCCn1c(=O)c(C(=O)Nc2ccc(C(=O)OCCC)cc2)c(O)c2ccccc21	18.5% [at 9.73 µM] (inactive)
4) CC12NC(Cc3ccccc31)c1ccccc12 (centres undefined)	inactive
